Target desc: Tyrosine-protein phosphatase non-receptor type 1 (Homo sapiens, UniProt P18031)
Sequence (P18031 whole entry): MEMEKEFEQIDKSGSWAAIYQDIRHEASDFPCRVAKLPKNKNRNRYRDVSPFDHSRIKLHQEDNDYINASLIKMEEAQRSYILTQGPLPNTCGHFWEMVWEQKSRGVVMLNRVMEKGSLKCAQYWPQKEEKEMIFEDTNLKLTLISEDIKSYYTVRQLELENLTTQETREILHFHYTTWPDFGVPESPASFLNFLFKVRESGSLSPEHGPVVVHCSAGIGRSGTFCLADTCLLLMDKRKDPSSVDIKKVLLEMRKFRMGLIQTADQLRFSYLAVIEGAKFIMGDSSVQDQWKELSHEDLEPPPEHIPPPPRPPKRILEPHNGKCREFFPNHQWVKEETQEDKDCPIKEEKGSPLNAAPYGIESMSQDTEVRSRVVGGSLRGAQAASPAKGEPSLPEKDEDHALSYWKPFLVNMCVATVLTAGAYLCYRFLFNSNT
Assay name: Inhibition of recombinant human PTP1B by malachite green assay
Could you please report measured IC50 for the items listed next?

Data point: `COc1cc(-c2nnc(SCC(=O)Nc3cc(C(=O)O)ccc3C)o2)cc(OC)c1OC` ; IC50 = 9.7 µM

Data point: `Cc1ccc(-c2nnc(SCC(=O)Nc3cc(C(=O)O)ccc3C)o2)cc1` ; IC50 = 8.9 µM

Data point: `COc1ccc2[nH]c(SCC(=O)Nc3cc(C(=O)O)ccc3C)nc2c1` ; IC50 = 8.2 µM

Data point: `Cc1ccc(C(=O)O)cc1NC(=O)CSc1nc2ccccc2[nH]1` ; IC50 = 15.2 µM

Data point: `Cc1ccc(C(=O)O)cc1NC(=O)CSc1nnc(-c2ccc(O)cc2)o1` ; IC50 = 10.3 µM

Data point: `Cc1ccc(C(=O)O)cc1NC(=O)CSc1nc2ccccc2s1` ; IC50 = 8.5 µM

meta.source: ChEMBL document CHEMBL3085725
